Recorded measurements of pIC50, one per entry
Method notes: Displacement of YOYO1 from phage lambda DNA by FID assay
Design: species or system Enterobacteria phage lambda
pIC50: −log10 of the molar value.
Endpoint label: pIC50

> print(dat)
                                 cpd.smiles  readout.qualifier  endpoint.result
1  C[C@@H]1O[C@@H](OCc2cc(O)c3c(c2)C(=O)c2cccc(O)c2C3=O)C[C@H](N)[C@H]1O                  <             4.40
2  Cc1c(O)c2c(c(O)c1CO[C@H]1C[C@H](N)[C@@H](O)[C@H](C)O1)C(=O)c1ccccc1C2=O                  <             4.40
3  COc1cccc2c1C(=O)c1c(O)c3c(c(O)c1C2=O)C[C@@](O)(C(C)=O)C[C@@H]3O[C@H]1C[C@H](N)[C@H](O)[C@H](C)O1                  =             6.08
4  COc1cccc2c1C(=O)c1c(O)c3c(c(O)c1C2=O)C[C@@](O)(C(=O)CO)C[C@@H]3O[C@H]1C[C@H](N)[C@H](O)[C@H](C)O1                  =             6.22
5  CC(=O)[C@]1(O)Cc2c(O)c3c(c(O)c2[C@@H](O[C@H]2C[C@H](N)[C@H](O)[C@H](C)O2)C1)C(=O)c1ccccc1C3=O                  =             5.71

* * *

Method notes: Cytotoxicity against mouse DA-3 cells after 24 hrs by XTT assay
Assay type: functional, cell-based
Condition parameters: DA-3, 24 h
Endpoint label: IC50 (µM)

> print(dat)
                                 cpd.smiles  endpoint.label  unit.spec  endpoint.result
1  COc1cccc2c1C(=O)c1c(O)c3c(c(O)c1C2=O)C[C@@](O)(C(=O)CO)C[C@@H]3O[C@H]1C[C@H](N)[C@H](O)[C@H](C)O1            IC50         µM                4
2  CC(=O)[C@]1(O)Cc2c(O)c3c(c(O)c2[C@@H](O[C@H]2C[C@H](N)[C@H](O)[C@H](C)O2)C1)C(=O)c1ccccc1C3=O            IC50         µM              2.3
3  Cc1c(O)c2c(c(O)c1CO[C@H]1C[C@H](N)[C@@H](O)[C@H](C)O1)C(=O)c1ccccc1C2=O            IC50         µM             17.5
4  COc1cccc2c1C(=O)c1c(O)c3c(c(O)c1C2=O)C[C@@](O)(C(C)=O)C[C@@H]3O[C@H]1C[C@H](N)[C@H](O)[C@H](C)O1            IC50         µM              1.9
5  C[C@@H]1O[C@@H](OCc2cc(O)c3c(c2)C(=O)c2cccc(O)c2C3=O)C[C@H](N)[C@H]1O            IC50         µM              7.9

* * *

Method notes: Displacement of SYBR from phage lambda DNA by FID assay
Parameters: species or system Enterobacteria phage lambda
Endpoint label: IC50 (nM)

> print(dat)
                                   compound  readout.qualifier  endpoint.result
1  COc1cccc2c1C(=O)c1c(O)c3c(c(O)c1C2=O)C[C@@](O)(C(=O)CO)C[C@@H]3O[C@H]1C[C@H](N)[C@H](O)[C@H](C)O1 [DOXORUBICIN]                  =              730
2  C[C@@H]1O[C@@H](OCc2cc(O)c3c(c2)C(=O)c2cccc(O)c2C3=O)C[C@H](N)[C@H]1O                  >            40000
3  Cc1c(O)c2c(c(O)c1CO[C@H]1C[C@H](N)[C@@H](O)[C@H](C)O1)C(=O)c1ccccc1C2=O                  >            40000
4  COc1cccc2c1C(=O)c1c(O)c3c(c(O)c1C2=O)C[C@@](O)(C(C)=O)C[C@@H]3O[C@H]1C[C@H](N)[C@H](O)[C@H](C)O1 [DAUNORUBICIN]                  =              140
5  CC(=O)[C@]1(O)Cc2c(O)c3c(c(O)c2[C@@H](O[C@H]2C[C@H](N)[C@H](O)[C@H](C)O2)C1)C(=O)c1ccccc1C3=O [IDARUBICIN]                  =              890

* * *

Recorded measurements of pIC50, one per entry
Test system: SK-OV-3
Method notes: Cytotoxicity against human SKOV3 cells after 24 hrs by XTT assay
Format: functional, cell-based
Condition parameters: SK-OV-3, 24 h
pIC50: −log10 of the molar value.
Endpoint label: pIC50

> print(dat)
                                   molecule  endpoint.result
1  COc1cccc2c1C(=O)c1c(O)c3c(c(O)c1C2=O)C[C@@](O)(C(=O)CO)C[C@@H]3O[C@H]1C[C@H](N)[C@H](O)[C@H](C)O1 [DOXORUBICIN]             4.25
2  C[C@@H]1O[C@@H](OCc2cc(O)c3c(c2)C(=O)c2cccc(O)c2C3=O)C[C@H](N)[C@H]1O             4.95
3  COc1cccc2c1C(=O)c1c(O)c3c(c(O)c1C2=O)C[C@@](O)(C(C)=O)C[C@@H]3O[C@H]1C[C@H](N)[C@H](O)[C@H](C)O1 [DAUNORUBICIN]             4.69
4  Cc1c(O)c2c(c(O)c1CO[C@H]1C[C@H](N)[C@@H](O)[C@H](C)O1)C(=O)c1ccccc1C2=O             4.79
5  CC(=O)[C@]1(O)Cc2c(O)c3c(c(O)c2[C@@H](O[C@H]2C[C@H](N)[C@H](O)[C@H](C)O2)C1)C(=O)c1ccccc1C3=O [IDARUBICIN]             5.35
